target: Recombinant human his-tagged IGF R extracellular domain protein (human) (UniProt P08069); test: SPR, Ab captured via anti-huIgG Fc, pH 7.4
Quantity kind: koff (s⁻¹)
Give a bare numeral; the unit s⁻¹ is implied.

Example binders with recorded koff:
Query: Look up koff of VRDN-02042 (antibody, V domains shown) VH: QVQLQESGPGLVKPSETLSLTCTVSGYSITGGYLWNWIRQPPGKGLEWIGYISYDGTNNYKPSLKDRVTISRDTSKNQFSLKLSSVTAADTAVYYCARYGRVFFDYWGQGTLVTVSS VL: DIVMTQSPLSLPVTPGEPASISCRSSQSIVHSNGNTYHQWYLQKPGQSPQLLIYKVSNRLYGVPDRFSGSGSGTDFTLKISRVEAEDVGVYYCFQGSHVPWTFGQGTKVEIK and report it.
Reply: 7.31e-05

Query: Look up koff of VRDN-02057 (antibody, V domains shown) VH: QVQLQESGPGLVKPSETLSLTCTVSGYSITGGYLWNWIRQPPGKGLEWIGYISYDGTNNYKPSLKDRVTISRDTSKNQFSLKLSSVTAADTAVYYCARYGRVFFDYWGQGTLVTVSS VL: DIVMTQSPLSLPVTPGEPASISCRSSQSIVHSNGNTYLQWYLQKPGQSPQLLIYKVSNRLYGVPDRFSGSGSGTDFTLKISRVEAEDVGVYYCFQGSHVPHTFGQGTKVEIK and report it.
Reply: 6.9e-05

---
Query: Look up koff of VRDN-02051 (antibody, V domains shown) VH: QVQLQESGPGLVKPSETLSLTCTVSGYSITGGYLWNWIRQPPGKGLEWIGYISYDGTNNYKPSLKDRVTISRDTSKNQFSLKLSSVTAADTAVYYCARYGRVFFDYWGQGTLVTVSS VL: DIVMTQSPLSLPVTPGEPASISCRSSQSIVHSNGNTYLQWYLQKPGQSPQLLIYKVSNRLYGVPDRFSGSGSGTDFTLKISRVEAEDVGVYYCHQGSHVPWTFGQGTKVEIK and report it.
Reply: 7.59e-05
